Reference for the values: PubChem BioAssay (NCI)

// reported TGI per item
System: M14 melanoma
PROTOCOL: NCI tumour cell line growth inhibition, 48 h

>  <COMPOUND>
COc1ccc(/C=C2\C(=O)Nc3ccccc32)cc1OC

>  <ASSAY_TARGET>
M14 melanoma

>  <TGI>
> 100 µM

$$$$
>  <COMPOUND>
CC(=O)OC12c3ccccc3C(c3ccccc31)C1C(=O)N(c3ccccc3O)C(=O)C12 (stereo not given)

>  <ASSAY_TARGET>
M14 melanoma

>  <TGI>
> 100 µM

$$$$
>  <COMPOUND>
COc1ccc2c(c1)OC(N)=C(C#N)C2c1ccc(F)c(F)c1 (stereo not given)

>  <ASSAY_TARGET>
M14 melanoma

>  <TGI>
> 100 µM

$$$$
>  <COMPOUND>
CC(Cc1ccc(O)cn1)(NC(=O)c1ccccc1)C(=O)O (stereo not given)

>  <ASSAY_TARGET>
M14 melanoma

>  <TGI>
> 100 µM

$$$$
>  <COMPOUND>
CO[C@@H]1C[C@H]2[C@@H]3CC[C@H]([C@@H](C)COC(C)=O)[C@@]3(C)CC[C@@H]2[C@@]2(C)CC[C@H]3C[C@]312

>  <ASSAY_TARGET>
M14 melanoma

>  <TGI>
38 µM

$$$$
>  <COMPOUND>
Nc1nc(N)c2cc(Sc3ccc(Cl)cc3)ccc2n1

>  <ASSAY_TARGET>
M14 melanoma

>  <TGI>
1.98 µM

$$$$
>  <COMPOUND>
CCOC(=O)C1C(c2ccccc2)C2(C#N)C(=N)OC1(C)C2(C#N)C#N (stereo not given)

>  <ASSAY_TARGET>
M14 melanoma

>  <TGI>
> 100 µM

$$$$
>  <COMPOUND>
OC1CCC(COC(c2ccccc2)(c2ccccc2)c2ccccc2)O1 (stereo not given)

>  <ASSAY_TARGET>
M14 melanoma

>  <TGI>
32.7 µM

$$$$
>  <COMPOUND>
O=C(OC1C#CCSCC#C/C=C\1)c1cnc2ccccc2n1 (stereo not given)

>  <ASSAY_TARGET>
M14 melanoma

>  <TGI>
> 100 µM

$$$$
>  <COMPOUND>
COc1ccc(/C=C/C(=O)c2ccc(B(O)O)cc2)cc1O

>  <ASSAY_TARGET>
M14 melanoma

>  <TGI>
29.6 µM

$$$$
>  <COMPOUND>
Cc1ccc(C)n1-n1c(Cc2ccc(Cl)cc2)n[nH]c1=O

>  <ASSAY_TARGET>
M14 melanoma

>  <TGI>
> 100 µM

$$$$
>  <COMPOUND>
O=C(CSc1nc(-c2ccccc2)c(-c2ccccc2)[nH]1)N/N=C/c1ccc([N+](=O)[O-])cc1

>  <ASSAY_TARGET>
M14 melanoma

>  <TGI>
31.1 µM

$$$$
>  <COMPOUND>
C=CC[C@H](O)[C@@](NC(=O)OCc1ccccc1)(Sc1ccc(C)cc1)C(F)(F)F

>  <ASSAY_TARGET>
M14 melanoma

>  <TGI>
74.4 µM

$$$$
>  <COMPOUND>
Nc1ccc(N=Nc2ccc(-c3ccc(N=Nc4c(S(=O)(=O)O)cc5cc(S(=O)(=O)O)c(N=Nc6ccc([N+](=O)[O-])cc6)c(N)c5c4O)cc3)cc2)c2cc(S(=O)(=O)O)ccc12

>  <ASSAY_TARGET>
M14 melanoma

>  <TGI>
> 100 µM

$$$$
>  <COMPOUND>
CCNc1nc2c(=O)n(C)c(=O)n(C)c2s1

>  <ASSAY_TARGET>
M14 melanoma

>  <TGI>
> 100 µM

$$$$
>  <COMPOUND>
CC1(C)CCCCC1/C=C/C(CC(O)(C(F)(F)F)C(F)(F)F)=N\Nc1ccc([N+](=O)[O-])cc1[N+](=O)[O-] (stereo not given)

>  <ASSAY_TARGET>
M14 melanoma

>  <TGI>
17.2 µM

$$$$
>  <COMPOUND>
N#C/C(=C\c1ccc([N+](=O)[O-])cc1)n1nnc2cc(F)c(F)cc21

>  <ASSAY_TARGET>
M14 melanoma

>  <TGI>
3.74 µM

$$$$
>  <COMPOUND>
CN(CC(=O)O)S(=O)(=O)c1ccc(Cl)cc1

>  <ASSAY_TARGET>
M14 melanoma

>  <TGI>
> 100 µM

$$$$
>  <COMPOUND>
CC(=O)OCC(OC(C)=O)C(OC(C)=O)C(/C=N\Nc1nc2ccccc2c(=O)[nH]1)OC(C)=O (stereo not given)

>  <ASSAY_TARGET>
M14 melanoma

>  <TGI>
> 100 µM

$$$$
>  <COMPOUND>
Cc1cc2c(=O)c3ccc(Cl)cc3[nH]c2c(C(=O)O)c1C

>  <ASSAY_TARGET>
M14 melanoma

>  <TGI>
> 100 µM

$$$$
>  <COMPOUND>
Nc1n[nH]c2ccc([C@H]3[C@@H]4C5CCC(C5)[C@@H]4c4c(ccc5[nH]ncc45)N3S(=O)(=O)C3CC3)cc12 (stereo not given in full)

>  <ASSAY_TARGET>
M14 melanoma

>  <TGI>
15.1 µM

$$$$
>  <COMPOUND>
CNC(=O)N(CCCC(NC(C)=O)C(=O)NCc1ccccc1)Cc1ccccc1 (stereo not given)

>  <ASSAY_TARGET>
M14 melanoma

>  <TGI>
> 100 µM

$$$$
>  <COMPOUND>
COc1cc(Br)cc2c1O[C@H]1C(=O)CC3CC21CCN3C (stereo not given in full)

>  <ASSAY_TARGET>
M14 melanoma

>  <TGI>
> 100 µM

$$$$
>  <COMPOUND>
NC(=S)N/N=C/c1cn(CCCl)c2ccccc12

>  <ASSAY_TARGET>
M14 melanoma

>  <TGI>
> 100 µM

$$$$
>  <COMPOUND>
Cc1nn(C(=O)c2ccc(Cl)cc2)c2c1C(c1ccccc1)SC(N)=N2 (stereo not given)

>  <ASSAY_TARGET>
M14 melanoma

>  <TGI>
> 10 µM

$$$$
>  <COMPOUND>
Cc1cc(S(=O)(=O)Nc2n[nH]c(-c3ccc(Cl)cc3)c2C#N)c(S)cc1Cl

>  <ASSAY_TARGET>
M14 melanoma

>  <TGI>
> 100 µM

$$$$
>  <COMPOUND>
CC1(C)OC[C@@H]([C@H](C=O)OCc2ccccc2)O1

>  <ASSAY_TARGET>
M14 melanoma

>  <TGI>
> 100 µM

$$$$
>  <COMPOUND>
O=C(CC(O)(C(F)(F)Cl)C(F)(F)Cl)CC(O)(C(F)(F)Cl)C(F)(F)Cl

>  <ASSAY_TARGET>
M14 melanoma

>  <TGI>
> 10 µM

$$$$
>  <COMPOUND>
Cc1cc2c(=O)cc(-c3ccc(O)cc3)oc2c(C(=O)O)c1C

>  <ASSAY_TARGET>
M14 melanoma

>  <TGI>
> 100 µM

$$$$
>  <COMPOUND>
CCN1CCC(O)(/C=C/c2cccc(C)c2)C(C(=O)/C=C/c2cccc(C)c2)C1 (stereo not given)

>  <ASSAY_TARGET>
M14 melanoma

>  <TGI>
7.47 µM

$$$$
>  <COMPOUND>
COc1cc2c3c(n(CCCNC(C)(C)CO)c(=O)c2cc1OC)-c1cc2c(cc1C3=O)OCO2

>  <ASSAY_TARGET>
M14 melanoma

>  <TGI>
19 µM

$$$$
>  <COMPOUND>
COc1ccc(-c2nc(Nc3ccc(F)cc3)nc(Nc3ccc4c(c3)nc(C)n4Cc3ccccc3)n2)cc1

>  <ASSAY_TARGET>
M14 melanoma

>  <TGI>
> 100 µM

$$$$
>  <COMPOUND>
C=CC(C)(C)c1c(OC)oc2ccc(OC)c(C)c2c1=O

>  <ASSAY_TARGET>
M14 melanoma

>  <TGI>
> 100 µM

$$$$
>  <COMPOUND>
Cc1ccc([N+](=O)[O-])cc1S(=O)(=O)Nc1ccc(C(=O)/C=C/c2ccccc2)cc1

>  <ASSAY_TARGET>
M14 melanoma

>  <TGI>
43.1 µM

$$$$
>  <COMPOUND>
C=CCC1=C2CCCCC2CCC1=O (stereo not given)

>  <ASSAY_TARGET>
M14 melanoma

>  <TGI>
> 100 µM

$$$$
>  <COMPOUND>
CCOc1ccc(-n2c(=O)c3nn4c(=O)n(-c5ccc(OCC)cc5)c(=O)c4nn3c2=O)cc1

>  <ASSAY_TARGET>
M14 melanoma

>  <TGI>
> 100 µM

$$$$
>  <COMPOUND>
CC(=O)OC12c3ccccc3C(c3ccccc31)C1C(=O)N(Nc3ccccc3)C(=O)C12 (stereo not given)

>  <ASSAY_TARGET>
M14 melanoma

>  <TGI>
> 100 µM

$$$$
>  <COMPOUND>
O=C1/C(=C\c2ccc(Cl)cc2)CN(C(=O)c2ccccc2)C/C1=C\c1ccc(Cl)cc1

>  <ASSAY_TARGET>
M14 melanoma

>  <TGI>
7.39 µM

$$$$
>  <COMPOUND>
CC12OC(C(=O)C13CC3)C1C(=O)c3cccc(O)c3C(=O)C12 (stereo not given)

>  <ASSAY_TARGET>
M14 melanoma

>  <TGI>
63.5 µM

$$$$
>  <COMPOUND>
Cc1cc(C)c2c(=O)cc(-c3ccccc3)[nH]c2c1

>  <ASSAY_TARGET>
M14 melanoma

>  <TGI>
> 82.4 µM

$$$$
